- tested target: human GPR 119 receptor (Homo sapiens)
- Construct: expressed in transfected cells
- Sequence (Q8TDV5 whole entry): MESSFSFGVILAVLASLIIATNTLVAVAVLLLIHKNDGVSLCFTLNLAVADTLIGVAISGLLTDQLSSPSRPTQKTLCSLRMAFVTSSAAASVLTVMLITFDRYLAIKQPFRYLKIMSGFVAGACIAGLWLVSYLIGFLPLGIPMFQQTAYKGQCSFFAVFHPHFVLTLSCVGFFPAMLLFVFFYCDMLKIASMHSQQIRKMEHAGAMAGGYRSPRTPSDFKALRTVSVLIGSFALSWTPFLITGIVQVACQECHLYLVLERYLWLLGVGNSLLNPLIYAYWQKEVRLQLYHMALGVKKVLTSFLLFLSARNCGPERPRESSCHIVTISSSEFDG
- experiment notes: cAMP assay in stable cell line expressing recombinant human GPR 119 receptor
- Format: cell-based
- measurement parameters: 100 nM compound; DMSO = 1
- Excerpt: A stable cell line expressing recombinant human GPR 119 receptor was established and used to investigate the efficacy of the compounds of the invention based on the intracellular levels of cyclic AMP (cAMP) using commercially available cAMP kits.
measured parameter: Fold increase in cyclic AMP with respective to DMSO (fold)

These solved cases illustrate the format of a correct answer.
CC(C)COC(=O)N1CCC(Oc2cc(Oc3cccc(/C=C4\SC(=O)NC4=O)c3)ncn2)CC1 [Example 33] | 1.36
Cc1c(Oc2cccc(/C=C3\SC(=O)NC3=O)c2)ncnc1OC1CCN(Cc2ccccc2)CC1 [Example 27] | 2.89

(P) Cc1c(Oc2cccc(/C=C3\SC(=O)NC3=O)c2)ncnc1OC1CCN(C(=O)OCc2ccccc2)CC1 [Example 50]
(Q) CCc1cnc(N2CCC(Oc3ncnc(Oc4cccc(/C=C5\SC(=O)NC5=O)c4)c3C)CC2)nc1 [Example 26]
Min Fold increase in cyclic AMP with respective to DMSO? P | Q Field: selected label. Fill in the label of the entry you choose.
P
